# system: human recombinant MC4R (Homo sapiens, UniProt P32245)
# Construct: host or cells: CHO-K1/Gα15
# Sequence (P32245 whole entry): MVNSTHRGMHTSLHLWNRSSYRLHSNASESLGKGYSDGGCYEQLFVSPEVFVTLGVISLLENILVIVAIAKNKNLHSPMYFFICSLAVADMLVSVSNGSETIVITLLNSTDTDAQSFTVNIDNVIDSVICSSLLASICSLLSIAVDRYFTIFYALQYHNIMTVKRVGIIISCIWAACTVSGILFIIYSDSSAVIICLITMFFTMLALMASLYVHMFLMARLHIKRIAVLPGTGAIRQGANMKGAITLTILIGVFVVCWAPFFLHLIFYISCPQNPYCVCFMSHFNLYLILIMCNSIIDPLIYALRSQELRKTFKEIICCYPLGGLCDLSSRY
# assay.comment: Ca2+ signalling functional assay, MC4R stable cell line (CHO-K1/Gα15)
# Assay type: cell-based
Positions of bridges follow the written chain, without caps; N, C: chain ends. Non-standard residues stand in square brackets, D forms with d. Residues, ends and D or L forms follow the SMILES beside them. Triazole bridges read from a SMILES are 1,4-linked. *: point of attachment. Benzoyl(3,5-(OH)2) = O=C(c1cc(O)cc(O)c1)*; Lys(N3) = [N-]=[N+]=NCCCC[C@H](N)C(=O)O; dPhe(4-F) = N[C@H](Cc1ccc(F)cc1)C(=O)O; Aad = N[C@@H](CCCC(=O)O)C(=O)O; Nle = CCCC[C@H](N)C(=O)O; Pra = C#CC[C@H](N)C(=O)O
value.type: EC50 (nM)

molecule	value.type	unit.name	reported.result
CCCC[C@H](NC(=O)c1cc(O)cc(O)c1)C(=O)N[C@H]1CCCCn2cc(nn2)C[C@@H](C(=O)N[C@@H](CCCC(N)=O)C(N)=O)NC(=O)[C@H](Cc2c[nH]c3ccccc23)NC(=O)[C@H](CCCNC(=N)N)NC(=O)[C@@H](Cc2ccc(F)cc2)NC(=O)[C@H](Cc2c[nH]cn2)NC1=O [KR-071] ({Benzoyl(3,5-(OH)2)}-[Nle][Lys(N3)]H[dPhe(4-F)]RW[Pra][Aad](NH2)-NH2; triazole 2-7)	EC50	nM	103
CCCC[C@H](NC(C)=O)C(=O)N[C@H]1CCCCn2cc(nn2)C[C@@H](C(N)=O)NC(=O)[C@H](Cc2c[nH]c3ccccc23)NC(=O)[C@H](CCCNC(=N)N)NC(=O)[C@@H](Cc2ccccc2)NC(=O)[C@H](Cc2cnc[nH]2)NC1=O [KR-009] (Ac-[Nle][Lys(N3)]H[dF]RW[Pra]-NH2; triazole 2-7)	EC50	nM	45.7
CCCC[C@H](NC(=O)c1cc(O)cc(O)c1)C(=O)N[C@H]1CCCCn2cc(nn2)C[C@@H](C(N)=O)NC(=O)[C@H](Cc2c[nH]c3ccccc23)NC(=O)[C@H](CCCNC(=N)N)NC(=O)[C@@H](Cc2ccccc2)NC(=O)[C@H](Cc2c[nH]cn2)NC1=O [KR-073] ({Benzoyl(3,5-(OH)2)}-[Nle][Lys(N3)]H[dF]RW[Pra]-NH2; triazole 2-7)	EC50	nM	13.9
CCCC[C@H](NC(C)=O)C(=O)N[C@H]1CCCCn2cc(nn2)C[C@@H](C(N)=O)NC(=O)[C@H](Cc2c[nH]c3ccccc23)NC(=O)[C@H](CCCNC(=N)N)NC(=O)[C@@H](Cc2ccc(F)cc2)NC(=O)[C@H](Cc2c[nH]cn2)NC1=O [KR-049] (Ac-[Nle][Lys(N3)]H[dPhe(4-F)]RW[Pra]-NH2; triazole 2-7)	EC50	nM	16.1

====

# assay.comment: In vivo topical administration pharmacokinetics of K173, rabbit (aqueous humor, cornea)
# recorded.conditions: aqueous humor, topical or ocular, 5 mg/ml, Group 1 (single dose), topical 5 mg/ml, 24 hr post-last dose, OS, individual animals, read-out: K173 Concentrations (ng/mL) in Rabbit Aqueous Humor OS Sample
# Protocol: Animals were not tranquilized for the examinations. The remaining ocular tissues were discarded. Ocular samples were stored −80° C. The rabbit efficacy model can be used to determine if QD or BID dosing is optimal for clinical utility.
Positions of bridges follow the written chain, without caps; N, C: chain ends. Non-standard residues stand in square brackets, D forms with d. Residues, ends and D or L forms follow the SMILES beside them. Triazole bridges read from a SMILES are 1,4-linked. *: point of attachment. Benzoyl(3,5-(OH)2) = O=C(c1cc(O)cc(O)c1)*; Lys(N3) = [N-]=[N+]=NCCCC[C@H](N)C(=O)O; dPhe(4-F) = N[C@H](Cc1ccc(F)cc1)C(=O)O; Nle = CCCC[C@H](N)C(=O)O; Pra = C#CC[C@H](N)C(=O)O
value.type: level at 24 h (ng/mL)

compound	unit.name	reported.result
CCCC[C@H](NC(=O)c1cc(O)cc(O)c1)C(=O)N[C@H]1CCCCn2cc(nn2)C[C@@H](C(N)=O)NC(=O)[C@H](Cc2c[nH]c3ccccc23)NC(=O)[C@H](CCCNC(=N)N)NC(=O)[C@@H](Cc2ccc(F)cc2)NC(=O)[C@H](Cc2c[nH]cn2)NC1=O [KR-072] ({Benzoyl(3,5-(OH)2)}-[Nle][Lys(N3)]H[dPhe(4-F)]RW[Pra]-NH2; triazole 2-7)	ng/mL	2.34

====

# assay.comment: in vivo
# recorded.conditions: rabbit, topical or ocular, 3 mg/ml solution, 35 L per eye, Concentrations (ng/mL) in Rabbit Aqueous Humor
Positions of bridges follow the written chain, without caps; N, C: chain ends. Non-standard residues stand in square brackets, D forms with d. Residues, ends and D or L forms follow the SMILES beside them. Triazole bridges read from a SMILES are 1,4-linked. *: point of attachment. Benzoyl(3,5-(OH)2) = O=C(c1cc(O)cc(O)c1)*; Lys(N3) = [N-]=[N+]=NCCCC[C@H](N)C(=O)O; dPhe(4-F) = N[C@H](Cc1ccc(F)cc1)C(=O)O; Aad = N[C@@H](CCCC(=O)O)C(=O)O; Nle = CCCC[C@H](N)C(=O)O; Pra = C#CC[C@H](N)C(=O)O

molecule	level at 0.5 h / ng/mL
CCCC[C@H](NC(=O)c1cc(O)cc(O)c1)C(=O)N[C@H]1CCCCn2cc(nn2)C[C@@H](C(=O)N[C@@H](CCCC(N)=O)C(N)=O)NC(=O)[C@H](Cc2c[nH]c3ccccc23)NC(=O)[C@H](CCCNC(=N)N)NC(=O)[C@@H](Cc2ccc(F)cc2)NC(=O)[C@H](Cc2c[nH]cn2)NC1=O [KR-071] ({Benzoyl(3,5-(OH)2)}-[Nle][Lys(N3)]H[dPhe(4-F)]RW[Pra][Aad](NH2)-NH2; triazole 2-7)	2.84

====

# assay.comment: In vivo topical administration pharmacokinetics of K173, rabbit (aqueous humor, cornea)
# recorded.conditions: aqueous humor, topical or ocular, 5 mg/ml, Group 1 (single dose), topical 5 mg/ml, 4 hr post-last dose, OS, Mean, read-out: K173 Concentrations (ng/mL) in Rabbit Aqueous Humor OS Sample, Mean
# Protocol: Animals were not tranquilized for the examinations. The remaining ocular tissues were discarded. Ocular samples were stored −80° C. The rabbit efficacy model can be used to determine if QD or BID dosing is optimal for clinical utility.
Positions of bridges follow the written chain, without caps; N, C: chain ends. Non-standard residues stand in square brackets, D forms with d. Residues, ends and D or L forms follow the SMILES beside them. Triazole bridges read from a SMILES are 1,4-linked. *: point of attachment. Benzoyl(3,5-(OH)2) = O=C(c1cc(O)cc(O)c1)*; Lys(N3) = [N-]=[N+]=NCCCC[C@H](N)C(=O)O; dPhe(4-F) = N[C@H](Cc1ccc(F)cc1)C(=O)O; Nle = CCCC[C@H](N)C(=O)O; Pra = C#CC[C@H](N)C(=O)O

molecule	level at 4 h
CCCC[C@H](NC(=O)c1cc(O)cc(O)c1)C(=O)N[C@H]1CCCCn2cc(nn2)C[C@@H](C(N)=O)NC(=O)[C@H](Cc2c[nH]c3ccccc23)NC(=O)[C@H](CCCNC(=N)N)NC(=O)[C@@H](Cc2ccc(F)cc2)NC(=O)[C@H](Cc2c[nH]cn2)NC1=O [KR-072] ({Benzoyl(3,5-(OH)2)}-[Nle][Lys(N3)]H[dPhe(4-F)]RW[Pra]-NH2; triazole 2-7)	3.35 ng/mL

====

# system: human recombinant MC4R (Homo sapiens, UniProt P32245)
# assay.comment: Ca2+ signalling functional assay, MC4R stable cell line (CHO-K1/Gα15)
# recorded.conditions: calcium flux functional assay
pIC50: −log10 of the molar value. Positions of bridges follow the written chain, without caps; N, C: chain ends. Non-standard residues stand in square brackets, D forms with d. Residues, ends and D or L forms follow the SMILES beside them. Triazole bridges read from a SMILES are 1,4-linked. Lys(N3) = [N-]=[N+]=NCCCC[C@H](N)C(=O)O; Nle = CCCC[C@H](N)C(=O)O; Pra = C#CC[C@H](N)C(=O)O

molecule	result.modifier	pIC50
CCCC[C@H](NC(C)=O)C(=O)N[C@H]1CCCCn2cc(nn2)C[C@@H](C(=O)N[C@@H](CCCCN)C(N)=O)NC(=O)[C@H](Cc2c[nH]c3ccccc23)NC(=O)[C@H](CCCNC(=N)N)NC(=O)[C@@H](Cc2ccc(OC)cc2)NC(=O)[C@H](Cc2c[nH]cn2)NC1=O [KR-058] (Ac-[Nle][Lys(N3)]H[dY](Me)RW[Pra]K-NH2; triazole 2-7)	=	6.91
CCCC[C@H](NC(C)=O)C(=O)N1CCC(=O)NCCN(CC(=O)N[C@@H](Cc2c[nH]c3ccccc23)C(N)=O)C(=O)[C@H](CCCNC(=N)N)NC(=O)[C@@H](Cc2ccccc2)NC(=O)[C@H](Cc2c[nH]cn2)NC(=O)C1	<	6.00

Data origin: patent US20260152527A1
